target: human TRPV4 (Homo sapiens (Human)); assay: Radiometric calcium selectivity assay, CHO cells expressing human TRPV4 (4α-phorbol 12,13-didecanoate); assay type: cell-based; details: read-out: IC50 values hTRPV4
Sequence (Q9HBA0 whole entry): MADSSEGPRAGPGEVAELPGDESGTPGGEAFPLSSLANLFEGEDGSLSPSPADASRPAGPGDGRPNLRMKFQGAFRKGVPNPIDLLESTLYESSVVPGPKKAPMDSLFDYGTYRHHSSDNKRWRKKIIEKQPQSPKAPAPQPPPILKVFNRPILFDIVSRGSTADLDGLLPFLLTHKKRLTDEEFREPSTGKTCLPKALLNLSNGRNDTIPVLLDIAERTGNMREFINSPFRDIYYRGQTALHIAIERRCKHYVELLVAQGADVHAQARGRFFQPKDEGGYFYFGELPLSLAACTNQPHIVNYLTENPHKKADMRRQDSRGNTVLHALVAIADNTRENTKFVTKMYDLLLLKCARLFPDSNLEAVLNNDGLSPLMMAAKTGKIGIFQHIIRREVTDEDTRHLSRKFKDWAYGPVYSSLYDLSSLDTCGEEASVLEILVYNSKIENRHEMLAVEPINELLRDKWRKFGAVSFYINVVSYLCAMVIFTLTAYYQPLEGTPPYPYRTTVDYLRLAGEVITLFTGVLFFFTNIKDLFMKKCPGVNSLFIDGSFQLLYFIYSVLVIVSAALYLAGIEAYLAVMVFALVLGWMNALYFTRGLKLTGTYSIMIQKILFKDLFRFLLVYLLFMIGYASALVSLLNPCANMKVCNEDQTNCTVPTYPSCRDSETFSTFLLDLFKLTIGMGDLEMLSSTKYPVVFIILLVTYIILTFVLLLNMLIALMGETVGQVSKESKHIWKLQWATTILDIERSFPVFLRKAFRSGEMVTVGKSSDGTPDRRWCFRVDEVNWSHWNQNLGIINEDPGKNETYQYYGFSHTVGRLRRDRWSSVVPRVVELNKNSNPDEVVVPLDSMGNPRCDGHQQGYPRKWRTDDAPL
pIC50: −log10 of the molar value.
The following compounds are shown together with reported pIC50 values.

// returns pIC50 for Cn1c(=O)c2c(CC(=O)Nc3nc(-c4cc(F)c(OCC(F)(F)F)c(Cl)c4)cs3)coc2n(C)c1=O with human TRPV4 (Homo sapiens (Human)); value = < 6.00

// returns pIC50 for Cc1oc2c(c1CC(=O)Nc1nc(-c3ccc(F)c(C(F)(F)F)c3F)cs1)c(=O)n(C)c(=O)n2C with human TRPV4 (Homo sapiens (Human)); value = < 5.00

// returns pIC50 for Cn1c(=O)c2c(CC(=O)Nc3nc(-c4ccc(OC(F)(F)F)c(F)c4)cs3)ccnc2n(C)c1=O with human TRPV4 (Homo sapiens (Human)); value = 6.80

// returns pIC50 for Cn1c(=O)c2c(CC(=O)Nc3nc(-c4cccc(F)c4F)cs3)cccc2n(C)c1=O with human TRPV4 (Homo sapiens (Human)); value = < 5.00

----------
target: UniProtKB Q8NET8; experiment: Radiometric calcium selectivity assay, CHO cells expressing human TRPV3 (2-aminoethoxydiphenyl borate); details: read-out: IC50 values hTRPV3
Sequence (Q8NET8 whole entry): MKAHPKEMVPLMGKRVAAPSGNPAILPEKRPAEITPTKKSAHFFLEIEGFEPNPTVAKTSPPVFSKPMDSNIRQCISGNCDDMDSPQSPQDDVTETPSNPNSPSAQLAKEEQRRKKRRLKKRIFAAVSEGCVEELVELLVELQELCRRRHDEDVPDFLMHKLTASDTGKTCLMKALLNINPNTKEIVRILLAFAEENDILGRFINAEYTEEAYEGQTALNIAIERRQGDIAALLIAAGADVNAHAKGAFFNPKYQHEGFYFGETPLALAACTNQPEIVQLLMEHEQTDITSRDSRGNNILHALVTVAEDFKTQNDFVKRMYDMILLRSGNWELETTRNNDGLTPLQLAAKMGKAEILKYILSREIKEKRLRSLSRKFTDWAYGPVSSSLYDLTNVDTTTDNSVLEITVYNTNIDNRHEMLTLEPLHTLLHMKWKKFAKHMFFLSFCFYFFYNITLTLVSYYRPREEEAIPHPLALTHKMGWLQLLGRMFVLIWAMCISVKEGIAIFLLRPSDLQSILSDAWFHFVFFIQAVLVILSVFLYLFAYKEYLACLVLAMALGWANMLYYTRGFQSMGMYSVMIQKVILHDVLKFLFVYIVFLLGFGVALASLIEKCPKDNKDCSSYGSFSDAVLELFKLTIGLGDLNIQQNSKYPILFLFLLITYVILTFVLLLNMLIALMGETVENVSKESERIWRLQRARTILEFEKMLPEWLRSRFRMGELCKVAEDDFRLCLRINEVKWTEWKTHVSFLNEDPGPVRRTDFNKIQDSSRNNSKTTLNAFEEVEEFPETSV
Property: IC50

Cc1oc2c(c1CC(=O)Nc1nc(-c3ccc(Cl)c(OC(F)(F)F)c3)cs1)c(=O)n(C)c(=O)n2C
> 1 µM
Cn1c(=O)c2c(CC(=O)Nc3nc(-c4ccc(I)cc4)cs3)cccc2n(C)c1=O
> 10 µM
Cn1c(=O)c2c(CC(=O)Nc3nc(-c4ccc(F)c(C(F)(F)F)c4F)cs3)onc2n(C)c1=O
> 1 µM

Summary for this molecule, Cc1oc2c(c1CC(=O)Nc1nc(-c3cc(F)c(C(F)(F)F)c(F)c3)cs1)c(=O)n(C)c(=O)n2C : IC50 is > 1 µM

----------
The following compounds are shown together with reported pIC50 values.
target: human TRPA1 (Homo sapiens (Human)); assay: 45Calcium uptake assay, AITC induced, human TRPA1 expressing CHO cells; conditions: AITC 30 micromolar, read-out: IC50 values hTRPA1
Sequence (O75762 whole entry): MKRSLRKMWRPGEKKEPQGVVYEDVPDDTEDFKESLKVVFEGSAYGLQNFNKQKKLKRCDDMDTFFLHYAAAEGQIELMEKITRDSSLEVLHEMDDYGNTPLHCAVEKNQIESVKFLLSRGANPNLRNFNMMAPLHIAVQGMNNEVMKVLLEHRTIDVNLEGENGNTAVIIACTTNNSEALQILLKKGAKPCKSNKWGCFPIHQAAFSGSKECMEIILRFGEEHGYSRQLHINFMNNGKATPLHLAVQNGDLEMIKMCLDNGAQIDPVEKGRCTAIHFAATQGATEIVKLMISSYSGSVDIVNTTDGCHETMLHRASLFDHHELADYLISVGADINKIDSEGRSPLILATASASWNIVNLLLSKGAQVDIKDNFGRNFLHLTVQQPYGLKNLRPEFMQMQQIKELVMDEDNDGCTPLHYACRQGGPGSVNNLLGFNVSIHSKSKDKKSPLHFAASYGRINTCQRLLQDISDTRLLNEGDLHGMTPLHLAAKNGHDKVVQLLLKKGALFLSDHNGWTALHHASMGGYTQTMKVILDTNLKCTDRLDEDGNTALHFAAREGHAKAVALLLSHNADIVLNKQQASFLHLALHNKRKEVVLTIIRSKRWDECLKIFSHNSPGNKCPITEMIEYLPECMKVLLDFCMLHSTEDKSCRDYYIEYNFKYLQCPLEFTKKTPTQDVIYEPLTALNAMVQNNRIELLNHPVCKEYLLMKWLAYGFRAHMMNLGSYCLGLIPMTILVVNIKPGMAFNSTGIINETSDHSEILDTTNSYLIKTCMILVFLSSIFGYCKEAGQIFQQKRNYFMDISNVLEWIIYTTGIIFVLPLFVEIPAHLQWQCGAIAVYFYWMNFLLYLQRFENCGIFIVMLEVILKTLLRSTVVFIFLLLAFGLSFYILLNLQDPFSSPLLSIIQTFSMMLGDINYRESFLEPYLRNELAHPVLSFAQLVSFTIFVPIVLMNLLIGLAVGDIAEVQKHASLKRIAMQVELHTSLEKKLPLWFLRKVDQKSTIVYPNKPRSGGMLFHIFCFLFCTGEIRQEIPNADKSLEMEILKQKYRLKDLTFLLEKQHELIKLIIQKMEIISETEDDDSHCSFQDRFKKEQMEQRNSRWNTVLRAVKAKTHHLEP
Just the number, please; pIC50 means minus log10 of the concentration in mol/L.

Example compounds with recorded pIC50:
Cn1c(=O)c2c(CC(=O)Nc3nc(-c4ccc(Cl)c(C(F)(F)F)c4)cs3)cccc2n(C)c1=O
7.32
Cn1c(=O)c2c(CC(=O)Nc3nc(-c4cccc(OC(F)(F)F)c4)cs3)cccc2n(C)c1=O
7.32
Cn1c(=O)c2c(cnn2CC(=O)Nc2nc(-c3cc(Cl)c(OCC(C)(C)C)c(Cl)c3)cs2)n(C)c1=O
7.91

Attention now shifts to the item below.
// returns pIC50 for Cn1c(=O)c2c(CC(=O)Nc3nc(-c4cccc(Cl)c4F)cs3)cccc2n(C)c1=O with human TRPA1 (Homo sapiens (Human)); value = 7.23

----------
Target: UniProt O75762
Experiment: 45Calcium uptake assay, AITC induced, human TRPA1 expressing CHO cells
Conditions: AITC 30 micromolar, read-out: IC50 values hTRPA1
Description: As contemplated herein, the IC50 value is measured by the following method. The inhibition of TRPA1 receptor activation is measured as inhibition of allylisothiocyanate (AITC) induced cellular uptake of radioactive calcium. […] Radioactivity in the lysate is measured in Packard Top count after addition of liquid scintillant. […] The inhibition of TRPA1 receptor activation was measured as inhibition of allylisothiocyanate (AITC) induced cellular uptake of radioactive calcium. […]
Property: pIC50
Just the number, please; pIC50 means minus log10 of the concentration in mol/L.

Example compounds with recorded pIC50:
Cn1c(=O)c2c(CC(=O)Nc3nc(-c4ccc(Cl)c(Cl)c4)cs3)cccc2n(C)c1=O
7.01
Cn1c(=O)c2c(CC(=O)Nc3nc(-c4ccc(F)c(OC(F)(F)F)c4)cs3)c(Cl)oc2n(C)c1=O
7.56
Cn1c(=O)c2c(CC(=O)Nc3nc(-c4ccc(OC(F)(F)F)c(Cl)c4)cs3)nsc2n(C)c1=O
8.20
Cn1c(=O)c2c(CC(=O)Nc3nc(-c4ccc(OC(F)F)c(Cl)c4)cs3)cccc2n(C)c1=O
7.47

Summary for this compound, Cn1c(=O)c2c(CC(=O)Nc3nc(-c4ccc(I)cc4)cs3)cccc2n(C)c1=O : pIC50 is 7.18

Summary for this compound, Cn1nc2c(c1CC(=O)Nc1nc(-c3ccc(OC(F)(F)F)c(F)c3)cs1)c(=O)n(C)c(=O)n2C : pIC50 is 7.96

Summary for this compound, Cn1c(=O)c2c(CC(=O)Nc3nc(-c4ccc(C(F)(F)F)cc4F)cs3)cccc2n(C)c1=O : pIC50 is 7.58

Origin of the recorded values: patent US9186360B2
